Give measured melting point for each item. Keep answers brief.

INSERT INTO measurements (compound, readout_label, experimental_result) VALUES
  ('O=S(CBr)c1ccc2c(c1)OCO2 (configuration not stated)', 'melting point', '88 to 89 °C'),
  ('Cn1cccc1C(=O)NCCCSc1ccncc1', 'melting point', '74 to 75 °C'),
  ('O=C(O)c1ccc(CCCCc2ccccc2Oc2ccccc2)cc1', 'melting point', '120 °C');

Here are 3 compounds. What values of melting point were reported for them?
1. CCCC[C@H]1CC[C@H](C(=O)O)CC1
2. CCOC(=O)CCc1cnc(-c2cc3cccc(N(C)S(=O)(=O)c4cccs4)c3[nH]2)s1
3. CCOC(=O)n1[nH]c(=O)c2c([N+](=O)[O-])cccc21

a:
["37 to 39 °C", "126 to 127 °C", "234 to 236 °C"]

// batch mode: one melting point value per listed entry
1. CN1CC(=O)N2[C@H](c3ccc4occc4c3)c3[nH]c4ccccc4c3C[C@@H]2C1=O
2. CCOC(=O)C1=NOC(c2ccc(NC(=O)c3c(I)cccc3C(=O)NC(C)C)c(C)c2)(C(F)(F)F)C1 (configuration not stated)
3. N#CCCNC(=S)C1=CC(CF)(CF)Oc2ccc([N+](=O)[O-])cc21
4. COC(=O)C1C(=O)N(Cc2ccc(Br)cc2F)C(=O)c2ccccc21 (configuration not stated)

a:
291 to 293 °C
172 to 174 °C
114 to 116 °C
149 to 150 °C

Take each entry in turn and give its melting point.
1. Oc1ccc2c(-c3nc4ccc(O)cc4o3)cccc2c1
2. Cc1noc(C)c1Cn1cc(-n2c(=O)n(C)n(Cc3ccccc3)c2=O)cn1

a:
1. 273 to 275 °C
2. 124 to 126 °C

====

Readout Label: melting point

Previously resolved entries follow.
INSERT INTO measurements (compound, experimental_result) VALUES
  ('O=c1[nH]c(Cc2ccccc2)ccc1CCl', '142 to 145 °C'),
  ('CCc1cccc(C)c1C(=O)N[C@@H](Cc1ccc([N+](=O)[O-])cc1)C(=O)OC', '119 to 121 °C');

// next item, melting point requested
q: I am curious: what melting point value has been reported for C=CCOC1CC2C3CCC4=CC(=O)CCC4(C)C3(F)C(O)CC2(C)C1(O)C(=O)CO (stereo not drawn) ?
a: 189 to 191 °C

====

For each of the compounds below, state its melting point.

INSERT INTO assay_data (compound, experimental_result) VALUES
  ('CON1C(=O)CC2(CCN(C(=O)C3=C(C)NC(C)=C([N+](=O)[O-])C3c3ccccc3C(F)(F)F)CC2)C1=O (configuration not stated)', '261 to 263 °C'),
  ('Nc1sc2c(c1C(=O)c1cccc3ccccc13)CCCC2', '137 to 140 °C'),
  ('Cc1c(-c2ccc(O)cc2)n(Cc2ccc(C#CCN3CCCC3)cc2)c2ccc(O)cc12', '174 to 176 °C'),
  ('O=C(CCc1ccccc1)N[C@H](Cc1ccc(C(F)(F)F)cc1)[C@@H](O)c1ccc(Cl)nc1 (racemic)', '149 to 150 °C'),
  ('O=C(Nc1ccc(C(F)(F)F)cc1)NC1CCN(S(=O)(=O)c2ccccc2)CC1', '248 to 252 °C'),
  ('CC(C)c1cc(C=CC(=O)Nc2ccc(C(=O)O)cc2)oc1C(C)C', '131 to 133 °C'),
  ('CCc1nc2ccc(Cc3ccc(C(=O)NO)cc3)cc2c(=O)n1CCc1ccccc1', '181 to 183 °C'),
  ('CC(C)(N)c1ccc(C(=O)Nc2cn3cc(Cl)ccc3n2)cc1', '235 to 237 °C'),
  ('COc1cc2ncnc(NNC(N)=O)c2cc1OC', '247 to 249 °C'),
  ('C#CCCN1CCC(O)(c2ccc(Cl)cc2)CC1', '98 to 100 °C');

Take each entry in turn and give its melting point.
1. CSc1ccc(CN2C(=O)C3(COc4cc5c(cc43)OCO5)c3ccccc32)cc1 (configuration not stated)
2. CC(C)(C)OC(=O)NCc1ccc(Nc2ncc(Br)cc2[N+](=O)[O-])cc1
3. O=C1C2=C(CCCC2)C(=O)N1c1cc([N+](=O)[O-])ccc1F
4. CC(C)NC1=NS(=O)(=O)c2sc(Cl)cc2N1
5. CCOC(=O)c1c(C)nc2c3cccc(Cl)c3ccn12
6. CCOc1ccc(-c2nc3c4ccccc4ccc3n2C)cc1
7. Cn1c(=O)oc2c3ncccc3c(Cl)cc21

a:
1: 128 to 130 °C; 2: 178 to 180 °C; 3: 154 to 156 °C; 4: 281 to 283 °C; 5: 140 to 141 °C; 6: 138 to 139 °C; 7: 219 to 221 °C

====

Could you please report measured melting point for the items listed next?

INSERT INTO measurements (molecule, experimental_result) VALUES
  ('O=C1CCc2c1cccc2C(=O)c1ccccc1', '86 to 88 °C');

# batch size: 5; output melting point per entry
1. COc1ccc(CN2C(=O)C3(COc4cc5onc(C)c5cc43)c3ccccc32)cc1 (configuration not stated)
2. CCCS(=O)c1c2ccccc2nc2c1c(C)nn2-c1ccccn1 (configuration not stated)
3. c1cncc(-c2ccnc(Nc3cccc(-n4ccnc4)c3)n2)c1
4. CN1C(=O)N(c2cc(Cl)cc(Cl)c2)C(=O)[C@]12CN(Cc1ccccc1)C[C@H]2c1ccc(C#N)cc1 (relative stereo)
5. CCOC(=O)C=C1CSC2=C1SCC=NC2

a:
["138 to 139 °C", "125 to 127 °C", "95 to 120 °C", "164 °C", "86 to 87 °C"]

q: // returns reported melting point for input CC(C)(C)NCC(O)c1cc(O)ccc1Cl (configuration not stated)
a: 162 to 163 °C

====

Consider the following compounds; for each one, report its melting point.

INSERT INTO assay_data (compound, experimental_result) VALUES
  ('CC(O)C(CCCc1ccccc1)n1cnc(C(N)=O)c1N (stereo not drawn)', '132 °C'),
  ('O=C(O)C(=O)c1cn(Cc2ccccc2)c2ccc(-c3ccc(OC(F)(F)F)cc3)cc12', '169 to 171 °C');

q: May I ask what melting point has been recorded for CS(=O)(=O)c1ccc(-c2cn[nH]c(=O)c2-c2ccc(F)cc2)cc1 ?
a: 255 to 256 °C

====

Readout Label: melting point

INSERT INTO measurements (compound, readout_label, experimental_result) VALUES
  ('CCCCCCCCCCCCSCCC(=O)OC(CSCCCCCCCCCCCC)CSCCCCCCCCCCCC', 'melting point', '31 to 32 °C'),
  ('Cn1c(=O)c2nc(-c3ccc(/C=C/C(=O)O)cc3)[nH]c2n(C)c1=O', 'melting point', '299 to 301 °C'),
  ('CC(C)(O)c1ccc(C#N)cc1', 'melting point', '45 to 47 °C'),
  ('C=C(c1ccc(OC)c(C)c1)c1ccc(C)c(Br)c1', 'melting point', '48 to 51 °C');

Please look at the following compound next.
q: Look at this compound and give its reported melting point. CC(c1cccnc1)c1c[nH]c(=S)[nH]c1=O (stereo not given)
a: 225 to 228 °C

====

Provide the reported melting point of each item.
Answers are plain numbers, in °C.

INSERT INTO measurements (compound, uom, experimental_result) VALUES
  ('CNc1nc(NCc2ccc(NC(=O)C3CCN(Cc4ccccc4)CC3)cc2)c2ccc(C)cc2n1', '°C', 128),
  ('CN(C)C=NS(=O)(=O)c1cccc(Br)c1', '°C', 122),
  ('O=C(O)CP(=O)(O)CCCCc1ccccc1', '°C', 110),
  ('CCCCn1c(SC(CC)C(N)=O)nc2c1c(=O)[nH]c(=O)n2C (configuration not stated)', '°C', 253);

q: Sample COC(=O)C1Cc2c(nc(C)n2-c2ccc(N(C)C)c(C)c2)CN1C(=O)C(c1ccccc1)c1ccccc1 (configuration not stated) — what was its melting point?
a: 165

====

Readout Label: melting point

As a guide, the following entries are already answered.
INSERT INTO results (compound, experimental_result) VALUES
  ('C=C(C)COC1CC2C3CCC4=CC(=O)C=CC4(C)C3(F)C(O)CC2(C)C1(O)C(=O)CCl (centres undefined)', '238 to 240 °C'),
  ('O=C(O)CCCc1cc2cc(Cl)ccc2n1S(=O)(=O)c1ccc2c(c1)CCO2', '174 to 179 °C'),
  ('CCCC(=O)c1c[nH]c2c(F)cccc2c1=O', '176 to 178 °C'),
  ('N#CC#Cc1ccc(O)cc1', '134 to 137 °C'),
  ('COC(=O)c1ccccc1-c1ccc(C)cc1', '119 to 121 °C'),
  ('O=C(/C=C/c1ccc(C(F)(F)F)cc1Br)Nc1ccc2ncsc2c1', '214 to 215 °C'),
  ('COc1ccc(-c2nc(Cl)cc(N3CCN(C)CC3)n2)cc1', '88 to 90 °C'),
  ('C=C(CCC(=O)O)CC(N)C(=O)O (centres undefined)', '68 °C'),
  ('O=C(O)C1CN(c2ccc(-c3noc(CN4C(=O)c5ccccc5C4=O)n3)cc2)C(=O)O1 (centres undefined)', '130 to 135 °C'),
  ('CN(CCc1cn(C(=O)OCc2ccccc2)c2ccc([N+](=O)[O-])cc12)C(=O)C(F)(F)F', '107 to 109 °C');

Need melting point for each of these compounds.
1. O=C(NCCC[C@H]1OC[C@H](c2cccc3cc(OCC4CC4)ccc32)CO1)OCC(F)(F)F
2. CCCCOC(=O)c1ccc(C(=O)c2ccccc2)cc1
3. CC(CCCc1ccccc1)c1cc2c(cc1O)C1=C(CCCC1=O)C(C)(C)O2 (centres undefined)
4. COc1cc2c(C)c(C#N)cnc2cc1F
5. CN(C(F)(F)C(F)F)S(=O)(=O)c1ccccc1S(N)(=O)=O

a:
["105 to 107 °C", "50 to 60 °C", "186 to 188 °C", "177 to 179 °C", "102 to 107 °C"]

Lab note: each compound below needs its melting point filled in.
1. C=C(Cl)CC1(C)Cc2cc(O)c(Cl)c(Cl)c2C1=O (centres undefined)
2. COCOc1ccccc1-c1cc(-c2ccccc2C(=O)OC)c(C#N)c(N)n1
3. CCOC(=O)C1=C(C)NC(C)=C(C(=O)OCC)C1c1ccccc1/C=C/c1ccc(OC)cc1
4. COc1ccc2cc(-c3csc(-c4ccccc4)n3)ccc2c1
5. CC(=O)NNc1ccnc2c(NC(=O)c3c(Cl)cccc3Cl)cc(F)cc12

a:
1. 183 °C
2. 109 to 110 °C
3. 179 to 181 °C
4. 191 to 193 °C
5. 250 to 254 °C

# per-item lookup of melting point; items listed below
1. CC1(C)CC(=O)C(C(=O)Nc2ccc(Cl)c(C(F)(F)F)c2)C(=O)C1
2. O=C(O)Cc1ccc(-n2cc(F)cn2)c(Cl)c1
3. CC(C)c1cccc(C(C)C)c1NC(=O)NCC1(c2c(Cl)cccc2Cl)CCC1

a:
1. 128 to 131 °C
2. 110 to 112 °C
3. 174 to 177 °C

For each of the compounds below, note its melting point.
1. CC(C)(C)OC(=O)c1ncn2c1COc1ccccc1-2
2. CS(=O)(=O)c1ccc(-c2cc(C(=O)c3ccncc3)sc2N2CCOCC2)cc1
3. CCOC(=O)C1(CC(=O)Nc2cccnc2)N=C(c2ccc(Cl)cc2)c2c(sc(C)c2C)-n2c(C)nnc21 (centres undefined)
4. CCN(CC)C(=O)Nc1ccccc1

a:
1. 119 to 123 °C
2. 128 °C
3. 133 to 135 °C
4. 81 to 85 °C

Ref: a melting point compilation (Tetko et al.; mined from patent text by program, amines drawn as free bases though some values may be those of a salt)
